FYI, the data here is from PubChem BioAssay (NCI).

Measured GI50, listed per entry.
Test system: A498 renal
Protocol notes: NCI tumour cell line growth inhibition, 48 h

[
  {
    "Molecule": "COC(=O)C1=C(C(=O)ON)[C@@H]2C=C[C@@]1([C@@H](Cc1ccccc1)Nc1ccccc1)O2",
    "GI50": "12.3 µM"
  },
  {
    "Molecule": "C1C[OH+]CCNCC[OH+]CC[OH+]CCN1.N.[Cl-].[Pt+4]",
    "GI50": "64.6 µM"
  },
  {
    "Molecule": "COc1ccc(C2CC(c3ccc(OC)cc3O)=NN2c2ccc(S(N)(=O)=O)cc2)cc1 (configuration not stated)",
    "GI50": "13.1 µM"
  },
  {
    "Molecule": "C/C(CC(C)(C)N1CC1)=N\\NC(=O)Nc1cccc2ccccc12",
    "GI50": "2.55 µM"
  },
  {
    "Molecule": "O=c1cc(-c2ccccc2)oc2c1ccc1ccccc12",
    "GI50": "11.1 µM"
  },
  {
    "Molecule": "COc1cc2c(/C=C3/C(=O)Nc4ccc(O)cc43)c(Cl)n(Cc3cc(OC)c(OC)c(OC)c3)c2cc1C",
    "GI50": "3.09 µM"
  },
  {
    "Molecule": "C#Cc1cccc(NC(=O)c2cccc(NC(=O)CCl)c2)c1",
    "GI50": "6.14 µM"
  },
  {
    "Molecule": "COc1cc2c(c(OC)c1OC)-c1c(c3ccc([N+](=O)[O-])cc3c(=O)n1CCCBr)C2=O",
    "GI50": "> 100 µM"
  },
  {
    "Molecule": "CCOC(=O)c1c2c(n3ccc(NC(=O)CCN4CCCCC4)cc13)C(=O)c1ncccc1C2=O",
    "GI50": "0.806 µM"
  },
  {
    "Molecule": "O=C(Nc1n[nH]c2nc(-c3ccc(O)cc3)c(Br)cc12)C1CC1",
    "GI50": "4.65 µM"
  },
  {
    "Molecule": "CC(C)=Cc1cccc2[nH]c(O)c(N=Nc3ccc(S(N)(=O)=O)cc3)c12",
    "GI50": "> 25 µM"
  },
  {
    "Molecule": "CCCCc1n(Cc2ccc3ccccc3n2)cc[n+]1Cc1ccc2ccccc2n1",
    "GI50": "3.01 µM"
  }
]

----------
Test system: RPMI-8226 leukemia
Protocol notes: NCI tumour cell line growth inhibition, 48 h; in the data active means GI50 below about 0.43 µM; inactive means the rest
Outcome codes: 1 for active, -1 for inactive

[
  {
    "Smiles representation": "COc1cc(NS(C)(=O)=O)ccc1Cc1c2ccccc2nc2ccccc12",
    "Class assignment": 1
  },
  {
    "Smiles representation": "CC[C@H]1CCC/C=C/[C@@H]2C[C@H](O)C[C@H]2[C@H](O)/C=C/C(=O)O1",
    "Class assignment": 1
  },
  {
    "Smiles representation": "CC1=C2[C@@H](CC1)[C@]1(C)O[C@@](C(C)C)(C[C@H]1OC(=O)CO)[C@H]2OC(=O)CCCc1ccccc1",
    "Class assignment": -1
  },
  {
    "Smiles representation": "Cc1ccc(-c2nc(/C=N/Nc3cc(C)nc4ccc(Br)cc34)c(C)o2)cc1",
    "Class assignment": -1
  },
  {
    "Smiles representation": "CCCS(=O)(=O)Nc1cccc(Nc2ncnc3cc(NC(=O)CCl)ccc23)c1Cl",
    "Class assignment": -1
  }
]
